From: patent US20080269286A1

Counter-ions that a name gives are not always drawn.
reported endpoint: melting point (°C)
Response body: numeric value in °C, unit text excluded.

INSERT INTO assay_data (compound, readout_value) VALUES
  ('CN1CCC(c2ccc(F)cc2F)CC1 (as salt: hydrochloric acid salt)', 198);

Turning now to a further record.
The value of melting point measured for the compound Clc1ccc(C2CCNCC2)cc1Cl (as salt: hydrochloric acid salt) turned out to be 170

====

Counter-ions that a name gives are not always drawn.
# reported melting point; entries follow
Response body: numeric value in °C, unit text excluded.

Worked examples, 2 molecules total:
INSERT INTO measurements (molecule, readout_value) VALUES
  ('Fc1cc(F)cc(C2CCNCC2)c1 (as salt: fumaric acid salt) [Example 3, 4-(3,5-DIFLUOROPHENYL)PIPERIDINE]', 178),
  ('Fc1ccc(C2CCNCC2)cc1Cl (as salt: oxalic acid salt) [Example 9, 4-(3-CHLORO-4-FLUOROPHENYL)PIPERIDINE]', 147);

The value of melting point measured for the molecule Fc1cc(Cl)cc(C2CCNCC2)c1 (as salt: hydrochloric acid salt) [Example 10, 4-(3-CHLORO-5-FLUOROPHENYL)PIPERIDINE] turned out to be 243
